Some molecules, each annotated with its measured IC50.
biological target: human P2X7 receptor (Homo sapiens, UniProt Q99572, R270H/Y155H); assay: Evaluation of human P2X7 receptor inhibitory activity (Yo-Pro uptake, BzATP stimulation, FLIPR TETRA); format: cell-based; details: antagonistic activity for the human P2X7 receptor; read-out: IC50

# MOL_SMILES, SYSTEM_NAME, IC50
rows = [
    ("CCOc1ccc(C)c(Nc2nc(=O)c(F)cn2Cc2cc(F)cc(F)c2)c1", "human P2X7 receptor (Homo sapiens, UniProt Q99572, R270H/Y155H)", "0.01 to 0.1 µM"),
    ("CCc1cc2c(cc1Nc1nc(=O)c(OC)cn1Cc1ccccc1)OCO2", "human P2X7 receptor (Homo sapiens, UniProt Q99572, R270H/Y155H)", "0.01 to 0.1 µM"),
    ("COCc1cn(Cc2cc(F)c(F)c(F)c2)c(Nc2cc3c(cc2C)COC3)nc1=O", "human P2X7 receptor (Homo sapiens, UniProt Q99572, R270H/Y155H)", "0.01 to 0.1 µM"),
    ("Cc1c(Nc2nc(=O)ccn2Cc2ccc(F)c(Cl)c2)ccc2[nH]ccc12", "human P2X7 receptor (Homo sapiens, UniProt Q99572, R270H/Y155H)", "< 0.01 µM"),
    ("Cc1cc(OC(F)F)c(C)cc1Nc1nc(=O)c(F)cn1Cc1ccc(F)c(Cl)c1", "human P2X7 receptor (Homo sapiens, UniProt Q99572, R270H/Y155H)", "< 0.01 µM"),
    ("COc1cn(Cc2ccc(F)c(Cl)c2)c(Nc2cc(C)c(OCC(F)(F)F)cc2C)nc1=O", "human P2X7 receptor (Homo sapiens, UniProt Q99572, R270H/Y155H)", "0.01 to 0.1 µM"),
    ("O=c1nc(Nc2cccc3c2CCCO3)n(Cc2cc(F)c(F)c(F)c2)cc1F", "human P2X7 receptor (Homo sapiens, UniProt Q99572, R270H/Y155H)", "< 0.01 µM"),
    ("Cc1ccc(CO)cc1Nc1nc(=O)cnn1Cc1cc(F)c(F)c(F)c1", "human P2X7 receptor (Homo sapiens, UniProt Q99572, R270H/Y155H)", "< 0.01 µM"),
    ("COc1cn(Cc2cc(F)c(F)c(F)c2)c(Nc2cccc3c(=O)[nH]ccc23)nc1=O", "human P2X7 receptor (Homo sapiens, UniProt Q99572, R270H/Y155H)", "0.01 to 0.1 µM"),
]

----------
Biological target: human P2X7 receptor (Homo sapiens, UniProt Q99572, R270H/Y155H)
Assay: Evaluation of human P2X7 receptor inhibitory activity (Yo-Pro uptake, BzATP stimulation, FLIPR TETRA)
Assay type: cell-based
Details: 1321N1 cells stably expressing human P2X7 receptor; BzATP stimulation, Yo-Pro uptake; read-out: IC50 (antagonistic activity for the human P2X7 receptor), class symbol
Protocol: Stably expressing cell line (1321N1 cell transfected with the human P2X7 receptor gene (GenBank accession number NM_002562.5 including T606C and G952A SNP)) was used. […] Measurement of fluorescence intensity by FLIPR TETRA was started. […] Changing values of fluorescence intensity by the compound of the present invention were calculated by difference between maximum and minimum fluorescence intensity for 20 minutes. Inhibition ratios (%) were calculated from the following equation: […]
Catalogue of IC50 values

# MOLECULE, IC50
rows = [
    ("CCc1ccccc1Nc1nc(=O)c(OC)cn1Cc1ccc(Cl)c(F)c1 [Compound I-0225]", "100 to 500 nM"),
    ("COc1cn(Cc2ccccc2OC(F)F)c(Nc2cccc(Cl)c2C)nc1=O [Compound I-0462]", "10 to 100 nM"),
    ("CCc1cc(OC)ccc1Nc1nc(=O)c(OC)cn1Cc1ccc(F)c(Cl)c1 [Compound I-0245]", "< 10 nM"),
    ("Cc1c(Cl)cccc1Nc1nc(=O)c(CC(=O)N(C)C)cn1Cc1ccccc1 [Compound I-0331]", "100 to 500 nM"),
    ("COc1cn(Cc2cccc(Cl)c2)c(Nc2cc(C)ccc2C)nc1=O [Compound I-0333]", "10 to 100 nM"),
    ("COc1cn(Cc2ccc(F)c(Cl)c2)c(Nc2cccc3c(=O)[nH]ccc23)nc1=O [Compound I-0398]", "10 to 100 nM"),
]
